Assay: In vivo single-dose PK, plasma HPLC-MS/MS
Parameters: species or system NSG mice
Details: NOD-scid IL2Rgamma-null (NSG), mouse, po, drug given alone, Buparlisib 30 mg/Kg, WNT974 3 mg/Kg
quantity_kind: Cmax (ng/mL)
Give bare numbers, in ng/mL.

1) Cc1cc(-c2ncc(CC(=O)Nc3ccc(-c4cnccn4)cn3)cc2C)ccn1    165

*Q* Find the recorded Cmax belonging to `Nc1cc(C(F)(F)F)c(-c2cc(N3CCOCC3)nc(N3CCOCC3)n2)cn1` and report it.
*A* 2300
